Data credit: ChEMBL document CHEMBL1136803

IC50 listing for selected compounds.
Test system: Leishmania amazonensis
Assay: In vitro inhibitory concentration against Leishmania amazonensis intracellular amastigotes
Format: functional, organism-based
All answers are understood in nM, so give the number only.

Sample records with IC50:
CC(O)(c1ccncc1)[C@H]1CC[C@H]2[C@@H]3CCC4C[C@@H](O[Si](C)(C)C(C)(C)C)CC[C@]4(C)[C@H]3CC[C@]12C (stereo partly drawn): 2000
CC(O)(c1cccnc1)[C@H]1CC[C@H]2[C@@H]3CCC4C[C@@H](O[Si](C)(C)C(C)(C)C)CC[C@]4(C)[C@H]3CC[C@]12C (stereo partly drawn): 1500

For the next question, use this compound.
Q: Observed IC50 on Leishmania amazonensis for CC(O)(C1CCCCN1)[C@H]1CC[C@H]2[C@@H]3CCC4C[C@@H](O)CC[C@]4(C)[C@H]3CC[C@]12C (stereo partly drawn) , please.
A: 10
